Some compounds, each annotated with its measured log10 of EC50.
Experimental target: human CYP11B1 (Homo sapiens (Human), UniProt P15538)
Sequence (P15538 25-503): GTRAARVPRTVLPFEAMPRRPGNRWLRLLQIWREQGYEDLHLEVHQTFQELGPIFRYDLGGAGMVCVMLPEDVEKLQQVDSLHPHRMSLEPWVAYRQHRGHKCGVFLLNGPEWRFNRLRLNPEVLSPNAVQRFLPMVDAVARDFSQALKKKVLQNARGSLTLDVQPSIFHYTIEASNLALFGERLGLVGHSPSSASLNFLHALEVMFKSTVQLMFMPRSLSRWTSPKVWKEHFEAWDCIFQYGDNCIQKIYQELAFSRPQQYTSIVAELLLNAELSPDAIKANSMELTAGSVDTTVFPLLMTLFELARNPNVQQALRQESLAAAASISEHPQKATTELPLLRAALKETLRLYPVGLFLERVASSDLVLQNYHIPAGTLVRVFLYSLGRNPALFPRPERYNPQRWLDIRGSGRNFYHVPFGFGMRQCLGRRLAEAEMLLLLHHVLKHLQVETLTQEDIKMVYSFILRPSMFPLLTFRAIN
Test description: G-402 cellular enzyme assay, human CYP11B1 (cortisol release, HTRF)
Run parameters: G-402 cells expressing human CYP11B1; 1 μM Deoxycortisol
Structures can show the parent of a compound that is named as a salt.
Observable: log10 of EC50 (log10 of the value in µM)

In [3]: df
Out[3]:
                                    compound                       experimental_target     observable  test_result
 0  CCC(=O)NC1CCCc2c(-c3cc(Cl)c4c(c3)CCC(=O)N4C)cncc21 (racemic) [Example 33]  human CYP11B1 (Homo sapiens (Human), UniProt P15538)  log10 of EC50         1.06
 1  CN1C(=O)CCc2cc(-c3cncc4c3CCCN4CCN)ccc21 [Example 12, hydrochloride]  human CYP11B1 (Homo sapiens (Human), UniProt P15538)  log10 of EC50         0.27
 2  CCS(=O)(=O)NC1CCc2c(-c3cc4c(cc3F)N(C)C(=O)CC4)cncc21 (racemic) [Example 25]  human CYP11B1 (Homo sapiens (Human), UniProt P15538)  log10 of EC50         0.47
 3  CCC(=O)NC1CCc2c(-c3cc4c(cc3F)N(C)C(=O)CC4)cncc21 (racemic) [Example 22]  human CYP11B1 (Homo sapiens (Human), UniProt P15538)  log10 of EC50         0.08
 4  C[C@@H](O)C(=O)NC1CCCc2c(-c3ccc4c(c3)CCC(=O)N4C)cncc21 (stereo partly drawn) [Example 16]  human CYP11B1 (Homo sapiens (Human), UniProt P15538)  log10 of EC50         0.02
 5  C[C@H](O)C(=O)NC1CCCc2c(-c3ccc4c(c3)CCC(=O)N4C)cncc21 (single isomer, unassigned; (-)) [Example 20]  human CYP11B1 (Homo sapiens (Human), UniProt P15538)  log10 of EC50         1.41
 6  CCC(=O)NC1CCCc2c(-c3cc4c(cc3F)N(C)C(=O)CC4)cncc21 (racemic) [Example 28]  human CYP11B1 (Homo sapiens (Human), UniProt P15538)  log10 of EC50         0.83
 7  CCC(=O)N[C@@H]1c2cncc(-c3ccc4c(c3)CCC(=O)N4C)c2CC[C@@H]1C (single isomer, unassigned) [Example 46]  human CYP11B1 (Homo sapiens (Human), UniProt P15538)  log10 of EC50         1.29
 8  CCC(=O)NC1CCCc2c(-c3cc(Cl)c4c(c3)CCC(=O)N4C)cncc21 (single isomer, unassigned; (+)) [Example 41]  human CYP11B1 (Homo sapiens (Human), UniProt P15538)  log10 of EC50         0.55
 9  CCC(=O)N[C@@H]1CCCc2c(-c3ccc4c(c3)CCC(=O)N4C)cncc21 [Example 3-1]  human CYP11B1 (Homo sapiens (Human), UniProt P15538)  log10 of EC50        -0.01
10  CCS(=O)(=O)NC1CCCc2c(-c3cc4c(cc3F)N(C)C(=O)CC4)cncc21 (single isomer, unassigned; (-)) [Example 31]  human CYP11B1 (Homo sapiens (Human), UniProt P15538)  log10 of EC50         1.16
11  CCC(=O)N[C@@H]1c2cncc(-c3cc4c(cc3F)N(C)C(=O)CC4)c2CC[C@@H]1C (single isomer, unassigned) [Example 43]  human CYP11B1 (Homo sapiens (Human), UniProt P15538)  log10 of EC50         1.51
12  CCC(=O)N[C@H]1c2cncc(-c3cc4c(cc3F)N(C)C(=O)CC4)c2CC[C@H]1F (single isomer, unassigned) [Example 55]  human CYP11B1 (Homo sapiens (Human), UniProt P15538)  log10 of EC50         0.44
13  CN1C(=O)CCc2cc(-c3cncc4c3CCC[C@H]4NC(=O)c3ncccc3Cl)ccc21 [Example 62]  human CYP11B1 (Homo sapiens (Human), UniProt P15538)  log10 of EC50        -0.25
14  CCS(=O)(=O)NC1CCCc2c(-c3cc(F)c4c(c3)CCC(=O)N4C)cncc21 (racemic) [Example 36]  human CYP11B1 (Homo sapiens (Human), UniProt P15538)  log10 of EC50         1.32
